Origin of values: ChEMBL document CHEMBL1130155

A set of molecules tested on Prothrombin (Bos taurus), with measured pKi:
By convention, pKi is the negative base-10 log of a molar concentration.

// query Dear colleague, please send me the reported pKi for CC1(C)C2CCC1(CCS(=O)(=O)NC(Cc1cccc(C(=N)N)c1)C(=O)N1CCN(S(C)(=O)=O)CC1)C(=O)C2 (stereo in doubt; 28) when you can.
// result 7.92

// query Quote pKi reported for CCCC(=O)N1CCN(C(=O)C(Cc2cccc(C(=N)N)c2)NS(=O)(=O)c2ccc3ccccc3c2)CC1 (centres undefined) please.
// result 5.98

// query // Input: CCN(CC)C(=O)N1CCN(C(=O)C(Cc2cccc(C(=N)N)c2)NS(=O)(=O)c2ccc3ccccc3c2)CC1 (centres undefined) . Output its pKi only.
// result 6.29

// query Using known records, supply pKi for Cc1c(C)c(S(=O)(=O)N[C@H](Cc2cccc(C(=N)N)c2)C(=O)N2CCN(S(C)(=O)=O)CC2)c(C)c2c1OC(C)(C)CC2
// result 8.28
